Assay: The compound was tested for toxicity against human NSCL cancer cell line NCI-H23
Type: functional, cell-based
Conditions: cancer cell lines
# reported EC50; entries follow
Field format: number, assumed µM, no unit text.

INSERT INTO results (compound_string, unit_abbrev, experimental_result) VALUES
  ('CN[C@@H](C)C(=O)N[C@H](C(=O)N1CCC[C@H]1C(=O)N[C@@H]1CCCc2ccccc21)C(C)(C)C', 'µM', 5.3);

Provide measured EC50 value, entry: CN[C@@H](C)C(=O)N[C@H](C(=O)N1CCC[C@H]1C(=O)N[C@@H]1CCCc2ccccc21)C1CCCCC1
1.5
